Provenance of the data: patent US20080139664A1

System: lysozyme
ASSAY INFO: ESI-MS of lysozyme glycoforms after incubation with D-ribose;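 also: lysozyme incubated with D-ribose, with or without anti-glycation agents, then separated by reversed-phase HPLC and analysed by electrospray mass spectrometry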
MEASUREMENT CONTEXT: lysozyme with one carboxymethylated Lys residue (14,364 Da); 37° C., 5 days
# key: entry, value: Peak area as % of total area of all glycoforms, 14,364
Answer format: numeric, % implied, no suffix.

// solved cases for Peak area as % of total area of all glycoforms, 14,364 follow
| COMPOUND | MEAS VALUE |
| --- | --- |
| O=[N+]([O-])c1cc([As](=O)(O)O)ccc1O | 0.0 |
| N[C@@H](Cc1ccc(O)c(O)c1)C(=O)O | 3.9 |
| NCCc1ccc(O)c(O)c1 | 3.3 |
| Oc1cc(O)c2c(c1)O[C@H](c1ccc(O)c(O)c1)[C@H](O)C2 [(−)-Epicatechin] | 1.8 |
| Cc1c(C(N)=O)cc([N+](=O)[O-])cc1[N+](=O)[O-] [Dinitolmide] | 3.0 |

# query: Peak area as % of total area of all glycoforms, 14,364 of entry `NC(=O)N/N=C/c1ccc([N+](=O)[O-])o1`
1.6

// repeat for O=c1cc(-c2ccc(O)c(O)c2)oc2c(O)c(O)ccc12 [7,8,3′,4′-Tetrahydroxyflavone] and report
2.0
